target: IRAK4 (Homo sapiens); construct: endogenous in cells; host or cells: Karpas299; experiment: IRAK4 Degradation Assay with Human Serum (Karpas299, HTRF/TR-FRET); assay type: cell-based; conditions: Karpas-299 in human serum, 24 hrs treatment; read-out: IRAK4 degradtion with human serum assay Dmax (%)
Readout Name: Dmax

Answered cases to consult:
Molecule: C[C@H]1CN(CC2CN(c3cc(F)c([C@H]4CCC(=O)NC4=O)c(F)c3)C2)CCN1[C@H]1CC[C@H](n2cc3cc(NC(=O)c4ccc5cc(C#N)cnn45)c(C(C)(C)O)cc3n2)CC1 [Example 306]
Result: 100%

Molecule: CC(C)(O)c1cc2nn([C@H]3CC[C@H](N4CCN([C@H]5C[C@H](c6cc(F)c([C@H]7CCC(=O)NC7=O)c(F)c6)C5)CC4)CC3)cc2cc1NC(=O)c1ccc2cc(C#N)cnn12 [Example 364]
Result: 99%

Reported Dmax (IRAK4 (Homo sapiens)) for entry Cc1nc(C2CCC(=O)NC2=O)ccc1N1CCC(N2CCN(C[C@H]3CC[C@H](n4cc5cc(NC(=O)c6ccc7cc(C#N)cnn67)c(C(C)(C)O)cc5n4)CC3)CC2)CC1 (some centres unmarked) [Example 420] is 96%

Reported Dmax (IRAK4 (Homo sapiens)) for entry CC(C)(O)c1cc2nn([C@H]3CC[C@H](C4CCN(C5CCN(c6cc(F)c([C@H]7CCC(=O)NC7=O)c(F)c6)CC5)CC4)CC3)cc2cc1NC(=O)c1ccc2cc(C#N)cnn12 [Example 409] is 96%

Reported Dmax (IRAK4 (Homo sapiens)) for entry CC(C)(O)c1cc2nn(C3CCN([C@@H]4CCN(C5CN(c6cc(F)c([C@H]7CCC(=O)NC7=O)c(F)c6)C5)CC4(F)F)CC3)cc2cc1NC(=O)c1ccc2cc(C#N)cnn12 [Example 342] is 98%

###

biological target: IRAK4 (Homo sapiens, UniProt Q9NWZ3); construct: endogenous in cells; host or cells: Karpas299; assay: IRAK4 Degradation Assay with Human Serum (Karpas299, HTRF/TR-FRET); format: cell-based; conditions: Karpas-299 in human serum, 24 hrs treatment; read-out: IRAK4 degradtion with human serum assay Dmax (%)
Sequence (Q9NWZ3 whole entry): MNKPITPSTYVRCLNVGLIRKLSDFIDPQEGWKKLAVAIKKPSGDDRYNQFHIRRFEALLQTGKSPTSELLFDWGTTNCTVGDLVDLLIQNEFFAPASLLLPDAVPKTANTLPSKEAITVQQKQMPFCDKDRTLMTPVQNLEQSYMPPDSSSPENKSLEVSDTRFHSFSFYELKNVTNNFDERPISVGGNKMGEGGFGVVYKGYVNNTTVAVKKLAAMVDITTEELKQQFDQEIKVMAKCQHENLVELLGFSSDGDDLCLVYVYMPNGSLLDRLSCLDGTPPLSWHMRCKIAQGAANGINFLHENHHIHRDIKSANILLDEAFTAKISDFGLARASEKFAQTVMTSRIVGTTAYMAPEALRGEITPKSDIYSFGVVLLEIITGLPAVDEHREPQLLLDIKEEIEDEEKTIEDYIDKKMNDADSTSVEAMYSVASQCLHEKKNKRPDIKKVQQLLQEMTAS
Reported values of Dmax for individual entries
Return type: number; implicit unit %.

Answered cases to consult:
Compound: CC(C)(O)c1cc2nn([C@H]3CC[C@H](N4CCN(CCNc5cc(F)c([C@H]6CCC(=O)NC6=O)c(F)c5)CC4)CC3)cc2cc1NC(=O)c1ccc2cc(C#N)cnn12
Readout Name: Dmax
Readout Number: 96
--
Compound: CC(C)(O)c1cc2nn([C@H]3CC[C@H](N4CCN([C@H]5C[C@@H](c6ccc(N[C@H]7CCC(=O)NC7=O)cc6)C5)CC4)CC3)cc2cc1NC(=O)c1ccc2cc(C#N)cnn12
Readout Name: Dmax
Readout Number: 98

Lab note: Cc1cc(C2CCC(=O)NC2=O)c(F)cc1[C@H]1C[C@@H](N2CCN([C@H]3CC[C@H](n4cc5cc(NC(=O)c6ccc7cc(C#N)cnn67)c(C(C)(C)O)cc5n4)CC3)CC2)C1 (stereo partly drawn) gave Dmax of 100

###

Reported values of DC50 for individual entries
target: IRAK4 (Homo sapiens); construct: endogenous in cells; host or cells: Karpas299; assay: IRAK4 Degradation Assay with Human Serum (Karpas299, HTRF/TR-FRET); assay type: cell-based; details: Karpas-299 in human serum, 24 hrs treatment; read-out: IRAK4 degradtion with human serum assay DC50

Answered cases to consult:
Compound: CC(C)(O)c1cc2nn(C34CC(N5CCN(C(=O)C6CN(c7cc(F)c([C@H]8CCC(=O)NC8=O)c(F)c7)C6)CC5)(C3)C4)cc2cc1NC(=O)c1cccc(C(F)(F)F)n1
DC50: 50 nM

Compound: COC[C@@H]1CN(CC2CN(c3cc(F)c([C@H]4CCC(=O)NC4=O)c(F)c3)C2)CCN1[C@H]1CC[C@H](n2cc3cc(NC(=O)c4ccc5cc(C#N)cnn45)c(C(C)(C)O)cc3n2)CC1
DC50: 2.9 nM

Compound: COc1cc(N2CC(C(=O)N3CCN([C@H]4CC[C@H](n5cc6cc(NC(=O)c7ccc8cc(C#N)cnn78)c7c(c6n5)OCO7)CC4)CC3)C2)ccc1[C@H]1CCC(=O)NC1=O
DC50: 14 nM

Lab note: C[C@@H]1CN(CCc2cc(F)c([C@H]3CCC(=O)NC3=O)c(F)c2)CCN1[C@H]1CC[C@H](n2cc3cc(NC(=O)c4ccc5cc(C#N)cnn45)c(C(C)(C)O)cc3n2)CC1 gave DC50 of 4.8 nM

Lab note: CC(C)(O)c1cc2nn([C@H]3CC[C@H](N4CCN(C5CN(c6cc(F)c([C@H]7CCC(=O)NC7=O)c(F)c6)C5)CC4)CC3)cc2cc1NC(=O)c1coc2cccnc12 gave DC50 of 5.4 nM

Lab note: CC(C)(O)c1cc2nn([C@H]3C[C@H](N4CCN(C(=O)[C@@H]5CCN(c6cc(F)c([C@H]7CCC(=O)NC7=O)c(F)c6)C5)CC4)C3)cc2cc1NC(=O)c1ccc2cc(C#N)cnn12 gave DC50 of 19 nM

Lab note: CC(C)(O)c1cc2nn([C@H]3CC[C@H](N4CCN(CCc5cc(F)c([C@H]6CCC(=O)NC6=O)c(F)c5)CC4)CC3)cc2cc1NC(=O)c1ccc2cc(C#N)cnn12 gave DC50 of 3.7 nM

Lab note: CC(C)(O)c1cc2nn([C@H]3CC[C@H](N4CCN(C[C@H]5C[C@@H](c6cc(F)c([C@H]7CCC(=O)NC7=O)c(F)c6)C5)CC4)CC3)cc2cc1NC(=O)c1ccc2cc(C#N)cnn12 gave DC50 of 5.8 nM

Lab note: CC(C)(O)c1cc2nn(C3CCN([C@H]4CCN(CCc5cc(F)c([C@H]6CCC(=O)NC6=O)c(F)c5)CC4(F)F)CC3)cc2cc1NC(=O)c1ccc2cc(C#N)cnn12 gave DC50 of 20 nM

Lab note: CC(C)(O)c1cc2nn([C@H]3CC[C@H](CN4CCN(C5CCN(c6ccc7c(c6)C(=O)N(C6CCC(=O)NC6=O)C7=O)CC5)CC4)CC3)cc2cc1NC(=O)c1ccc2cc(C#N)cnn12 (stereo partly shown) gave DC50 of 14 nM

###

molecular target: IRAK4 (Homo sapiens); construct: endogenous in cells; host or cells: Karpas299; assay: IRAK4 Degradation Assay (Karpas299, HTRF/TR-FRET); format: cell-based; settings: Karpas-299 cells, 24 h treatment; read-out: IRAK4 in Karpas-299 (24 h) DC50
Label yes when DC50 is strictly below 1 nM; at or above that, label no.

Check out these entries, answers already filled in.
Compound: COC[C@H]1CN([C@H]2CC[C@H](n3cc4cc(NC(=O)c5ccc6cc(C#N)cnn56)c(C(C)(C)O)cc4n3)CC2)CCN1C(=O)C1CN(c2cc(F)c([C@H]3CCC(=O)NC3=O)c(F)c2)C1 [Example 185]
Category Label: yes
//
Compound: CC(C)(O)c1cc2nn([C@H]3CC[C@H](N4CCN(CC(=O)N[C@@H](Cc5ccccc5)C(=O)NC5CCC(=O)NC5=O)CC4)CC3)cc2cc1NC(=O)c1ccc2cc(C#N)cnn12 (some centres unmarked) [Example 439]
Category Label: no

Please state whether DC50 is below 1 nM for O=C1CC[C@H](c2c(F)cc(N3CCC(CN4CCN([C@H]5CC[C@H](n6cc(NC(=O)c7coc(-c8ccnc(NCC(F)(F)F)c8)n7)c(C(F)F)n6)CC5)CC4)CC3)cc2F)C(=O)N1 [Example 20]
no

Please state whether DC50 is below 1 nM for CC(C)(O)c1cc2nn(C34CC(N5CCN(C(=O)C6CN(c7cc(F)c([C@H]8CCC(=O)NC8=O)c(F)c7)C6)CC5)(C3)C4)cc2cc1NC(=O)c1ccc2cc(C#N)cnn12 [Example 157]
yes

###

Biological target: IRAK4 (Homo sapiens, UniProt Q9NWZ3)
Construct: endogenous in cells; host or cells: Karpas299
Assay: IRAK4 Degradation Assay (Karpas299, HTRF/TR-FRET)
Format: cell-based
Settings: Karpas-299 cells, 24 h treatment; read-out: IRAK4 in Karpas-299 (24 h) DC50
Description: IRAK4 degradation was measured using a TR-FRET-based method (Degorce, François, et al. Current chemical genomics. 2009, 3: 22). […] IRAK4 level was quantitated using the HTRF kit as described by the manufacturer manual (Cisbio). FRET signals were measured using a PHERAstar FSX reader (BMG Labtech). […] The inhibition (degradation) percentage of the compound was calculated by the following equation: […]
Reported values of DC50 for individual entries
Return type: number; implicit unit nM.

Answered cases to consult:
Molecule: CC(C)(O)c1cc2nn(C3CCN(C4CCN(C(=O)[C@@H]5CCN(c6cc(F)c([C@H]7CCC(=O)NC7=O)c(F)c6)C5)CC4)CC3)cc2cc1NC(=O)c1cccn(C2CC2)c1=O
System Under Test: IRAK4 (Homo sapiens, UniProt Q9NWZ3)
Readout Number: 2.8
--
Molecule: NC(=O)c1nn([C@H]2CC[C@H](N3CCN(C(=O)[C@@H]4CCN(c5cc(F)c([C@H]6CCC(=O)NC6=O)c(F)c5)C4)CC3)CC2)cc1NC(=O)c1coc(-c2ccnc(NCC(F)(F)F)c2)n1
System Under Test: IRAK4 (Homo sapiens, UniProt Q9NWZ3)
Readout Number: 1.8
--
Molecule: O=C1CC[C@H](c2c(F)cc(N3CC[C@@H](C(=O)N4CCN([C@H]5CC[C@H](n6cc(NC(=O)c7coc(-c8ccnc(NCC9CC9)c8)n7)c(C(F)F)n6)CC5)CC4)C3)cc2F)C(=O)N1
System Under Test: IRAK4 (Homo sapiens, UniProt Q9NWZ3)
Readout Number: 2.2
--
Molecule: CCc1cc(N2CC(C(=O)N3CCN([C@H]4CC[C@H](n5cc6cc(NC(=O)c7ccc8cc(C#N)cnn78)c(C(C)(C)O)cc6n5)CC4)CC3)C2)ccc1N1CCC(=O)NC1=O
System Under Test: IRAK4 (Homo sapiens, UniProt Q9NWZ3)
Readout Number: 1.7
--
Molecule: Cc1cc(N2CCC(N3CCN([C@H]4CC[C@H](n5cc6cc(NC(=O)c7ccc8cc(C#N)cnn78)c(C(C)(C)O)cc6n5)CC4)CC3)CC2)cc(C)c1[C@H]1CCC(=O)NC1=O
System Under Test: IRAK4 (Homo sapiens, UniProt Q9NWZ3)
Readout Number: 1.3
--
Molecule: COc1cc2nn(C3CCN(C4CN(C(=O)C5CN(c6cc(F)c([C@H]7CCC(=O)NC7=O)c(F)c6)C5)C4)CC3)cc2cc1NC(=O)c1cccc(C(F)(F)F)n1
System Under Test: IRAK4 (Homo sapiens, UniProt Q9NWZ3)
Readout Number: 1.1
--
Molecule: CC(C)(O)c1cc2nn([C@H]3CC[C@H](N4CCN(C5CN(c6cc(F)c([C@H]7CCC(=O)NC7=O)c(F)c6)C5)CC4)CC3)cc2cc1NC(=O)c1ccc2cc(C#N)cnn12
System Under Test: IRAK4 (Homo sapiens, UniProt Q9NWZ3)
Readout Number: 0.8
--
Molecule: C[C@H]1CN(CC2CN(c3cc(F)c([C@H]4CCC(=O)NC4=O)c(F)c3)C2)CCN1[C@H]1CC[C@H](n2cc3cc(NC(=O)c4ccc5cc(C#N)cnn45)c(C(C)(C)O)cc3n2)CC1
System Under Test: IRAK4 (Homo sapiens, UniProt Q9NWZ3)
Readout Number: 1.3

Lab note: CC(C)(O)c1cc2nn([C@H]3CC[C@H](N4CCN(C5CN(c6cc(F)c([C@H]7CCC(=O)NC7=O)c(F)c6)C5)CC4=O)CC3)cc2cc1NC(=O)c1ccc2cc(C#N)cnn12 gave DC50 of 0.6

Lab note: COc1cc2nn(C3CCN(C4CCN(C(=O)C5CN(c6cc(F)c([C@H]7CCC(=O)NC7=O)c(F)c6)C5)CC4)CC3)cc2cc1NC(=O)c1cccc(C(F)(F)F)n1 gave DC50 of 6.3

Lab note: CC(C)(O)c1cc2nn([C@H]3CC[C@H](CN4CCN(CCNc5cccc6c5C(=O)N(C5CCC(=O)NC5=O)C6=O)CC4)CC3)cc2cc1NC(=O)c1ccc2cc(C#N)cnn12 (stereo partly shown) gave DC50 of 2.5

Lab note: CC(C)(O)c1cc2nn([C@H]3CC[C@H](N4CCN(CCc5cc(F)c([C@H]6CCC(=O)NC6=O)c(F)c5)CC4=O)CC3)cc2cc1NC(=O)c1ccc2cc(C#N)cnn12 gave DC50 of 0.6

Lab note: CC(C)(O)c1cc2nn([C@H]3CC[C@H](N4CCN(C[C@@H]5CCN(c6ccc7c(c6)C(=O)N(C6CCC(=O)NC6=O)C7=O)C5)CC4)CC3)cc2cc1NC(=O)c1ccc2cc(C#N)cnn12 (stereo partly shown) gave DC50 of 1.6

Lab note: CC(C)(O)c1cc2nn([C@H]3CC[C@H](N4CCN([C@@H]5CCN(c6ccc(N7CCC(=O)NC7=O)cc6)C5)CC4)CC3)cc2cc1NC(=O)c1ccc2cc(C#N)cnn12 gave DC50 of 3.4

Lab note: COC[C@@H]1CN([C@H]2CC[C@H](n3cc4cc(NC(=O)c5ccc6cc(C#N)cnn56)c(C(C)(C)O)cc4n3)CC2)CCN1C(=O)C1CN(c2cc(F)c(N3CCC(=O)NC3=O)c(F)c2)C1 gave DC50 of 1.8

Lab note: O=C1CCN(c2ccc(N3CC[C@@H](C(=O)N4CCN([C@H]5CC[C@H](n6cc(NC(=O)c7coc(-c8ccnc(NCC9CC9)c8)n7)c(C(F)F)n6)CC5)CC4)C3)cc2)C(=O)N1 gave DC50 of 6

Lab note: CC(C)(O)c1cc2nn([C@H]3CC[C@H](N4CCN(CC5CN(c6cc(F)c([C@H]7CCC(=O)NC7=O)c(F)c6)C5)C[C@@H]4CO)CC3)cc2cc1NC(=O)c1ccc2cc(C#N)cnn12 gave DC50 of 0.5

Lab note: COc1cc2nn([C@H]3CC[C@H](CN4CCN(C(=O)[C@@H]5CCN(c6ccc(N7CCC(=O)NC7=O)cc6)C5)CC4)CC3)cc2cc1NC(=O)c1cccn(C2CC2)c1=O gave DC50 of 3.1

Lab note: COC[C@H]1CN([C@H]2CC[C@H](n3cc4cc(NC(=O)c5ccc6cc(C#N)cnn56)c(C(C)(C)O)cc4n3)CC2)CCN1C1CN(c2cc(F)c([C@H]3CCC(=O)NC3=O)c(F)c2)C1 gave DC50 of 1.1
